system: NCI-H23; experiment: NCI tumour cell line growth inhibition, 48 h
Active and inactive are the calls of the source. No stated cut-off is given here; in the data, active = GI50 up to about 1.1 µM and inactive = higher.
Allowed answers: active, inactive

# compound, class
records = [
    ("CCOC(=O)C1(C#N)C(=O)c2cc[n+](CC[n+]3ccc4c(c3)C(=O)C(C#N)(C(=O)OCC)C4=O)cc2C1=O (centres undefined)", "inactive"),
]

Asked: Dear all, I need the recorded test outcome for `Cc1cc2c([N+](=O)[O-])cc3c(c2o1)C(=O)C=CC3=O` , thank you.
Given back: inactive

Asked: Another: N#CC(c1ccccc1)N1CCCN(C(C#N)c2ccccc2)C1c1ccccc1O (centres undefined)
Given back: inactive

Asked: Another: Nc1ccn(C2OC(COP(=O)(O)O)C(O)C2O)c(=O)n1 (centres undefined)
Given back: inactive

Asked: Another: `CC(=O)c1c(O)c2c([nH]c1=O)CCCC2`
Given back: inactive

Asked: Another: CCOC(=O)C(NC(=O)CC)(N1CCN(c2cc3c(cc2F)c(=O)c(C(=O)O)cn3C2CC2)CC1)C(F)(F)F (centres undefined)
Given back: inactive

Asked: Another: `Clc1nc(-[n+]2ccc(-c3ccncc3)cc2)nc(Nc2ccccc2)c1Cl`
Given back: inactive

Asked: Another: CCOc1c(OC)cc(-c2nc3n(n2)C(=O)C(CC)S3)cc1OC (centres undefined)
Given back: inactive

Asked: Another: `O=C(/C=C\c1ccccc1O)c1ccc(O)cc1O`
Given back: inactive

Asked: Another: `COC(=O)[C@@H]1C(=O)O[C@@H](c2cc(OC)c(OC)cc2OC)[C@@H]1C(=O)OC.COC(=O)[C@H]1C(=O)O[C@@H](c2cc(OC)c(OC)cc2OC)[C@@H]1C(=O)OC`
Given back: inactive

Asked: Another: CC[C@]1(O)CC(OC2CC(N(C)C)C(O)C(C)O2)c2c(cc3c(c2O)C(=O)c2c(O)cccc2C3=O)[C@@H]1C(=O)OC (some centres undefined)
Given back: active

Asked: Another: C=CCNC(=S)N1CC(C)C(=O)Nc2ccccc21 (centres undefined)
Given back: inactive

Asked: Another: `O=c1[nH]nc(-c2ccccc2)n1/N=C/c1ccccc1O`
Given back: inactive

Asked: Another: Cc1nc2c(o1)C(=O)c1ccccc1/C2=N/C1CCCCC1N (centres undefined)
Given back: active
